Test system: WHIM2 (cells of a triple-negative basal-like breast cancer xenograft)
experiment-summary: cell viability (% of vehicle); higher = less cytotoxic
assay-context: 10 µM; 72 h
measured-parameter: cell viability
Form rule: numeric answer, no unit written next to it.

molecule: Cn1c(=O)c2[nH]cnc2n(C)c1=O [Theophylline]
subject-of-test: WHIM2
cell viability: 86.5

Any idea what its cell viability is? The molecule is Cl.NC1=NCC2c3ccccc3Cc3ccccc3N12 (centres undefined) [Epinastine HCl]
96.5

Field request: cell viability | item: Cl.Fc1ccc(C2CCNCC2COc2ccc3c(c2)OCO3)cc1 (centres undefined) [Paroxetine HCl]
43

So what's the measured cell viability for this one? C=C1C(=CC=C2CCCC3(C)C2CCC3C(C)CCCC(C)C)CC(O)CC1O (centres undefined) [Alfacalcidol]
49.9

Reported cell viability for Nc1nc(=O)c2c(CCc3ccc(C(=O)NC(CCC(=O)[O-])C(=O)[O-])cc3)c[nH]c2[nH]1.[Na+].[Na+] (centres undefined) [Pemetrexed] : what is it?
95.2

Which cell viability reading was recorded for the molecule CC(O)C1C(=O)N2C(C(=O)OCOC(=O)C(C)(C)C)=C(SC3CN(C4=NCCS4)C3)C(C)C12 (centres undefined) [Tebipenempivoxil] ?
112

----------
Test system: HCI13 (cells of an ER-positive luminal breast cancer xenograft)
experiment-summary: cell viability (% of vehicle); higher = less cytotoxic
assay-context: 10 µM; 72 h
Rule: cell viability below 100 gives t, anything at or above gives f.

Observe how each entry below is paired with its result.
compound: CC(CCC(=O)O)C1CCC2C3C(O)CC4CC(O)CCC4(C)C3CCC12C (stereo unspecified) [Ursodiol]
assigned-label: f
--
compound: CCC1OC(=O)C(C)C(OC2CC(C)(OC)C(O)C(C)O2)C(C)C(OC2OC(C)CC(N(C)C)C2O)C(C)(O)CC(C)C(=NOCOCCOC)C(C)C(O)C1(C)O (stereo unspecified)
assigned-label: f
--
compound: CNC(=O)c1cc(Oc2ccc(NC(=O)Nc3ccc(Cl)c(C(F)(F)F)c3)cc2)ccn1
assigned-label: t
--
compound: NC(=O)c1cccnc1 [Nicotinamide]
assigned-label: f
--
compound: Nc1ccccc1NC(=O)c1ccc(CNC(=O)OCc2cccnc2)cc1
assigned-label: t
--
compound: CO[C@H]1C[C@@H]2CC[C@@H](C)[C@@](O)(O2)C(=O)C(=O)N2CCCC[C@H]2C(=O)O[C@H]([C@@H](C)C[C@@H]2CC[C@@H](OCCO)[C@H](OC)C2)CC(=O)[C@H](C)/C=C(\C)[C@@H](O)[C@@H](OC)C(=O)[C@H](C)C[C@H](C)/C=C/C=C/C=C/1C [Everolimus (RAD001)]
assigned-label: t

Dear colleague, could you confirm whether cell viability of COc1ccc(CC2c3cc(OC)c(OC)cc3CC[N+]2(C)CCC(=O)OCCCCCOC(=O)CC[N+]2(C)CCc3cc(OC)c(OC)cc3C2Cc2ccc(OC)c(OC)c2)cc1OC.O=S(=O)([O-])c1ccccc1.O=S(=O)([O-])c1ccccc1 (stereo unspecified) [Cisatracurium Besylate] falls below 100? Thanks.
t

I wonder whether CNC(=O)CN(CCN(CCN(CC(=O)[O-])CC(=O)NC)CC(=O)[O-])CC(=O)[O-].O.[Gd+3] [Gadodiamide] has cell viability below 100. Can you tell?
t

Is cell viability of CN1CCN2c3ncccc3Cc3ccccc3C2C1 (stereo unspecified) strictly below 100?
f

Please let me know if `O=C(O)c1cc(=O)c2ccccc2o1` shows cell viability below 100.
t

Dear reviewer, please state whether C=CC1=C(C(=O)O)N2C(=O)C(NC(=O)C(=NO)c3csc(N)n3)C2SC1 (stereo unspecified) has cell viability strictly beneath 100.
f

State whether 100 exceeds cell viability recorded for CCN(CC)CCNC(=O)c1cc(Cl)c(N)cc1OC [Metoclopramide] .
f

Decide: cell viability of `CC[C@H](C)[C@@H]1NC(=O)[C@H](Cc2ccc(O)cc2)NC(=O)[C@@H](N)CSSC[C@@H](C(=O)N2CCC[C@H]2C(=O)N[C@@H](CC(C)C)C(=O)NCC(N)=O)NC(=O)[C@H](CC(N)=O)NC(=O)[C@H](CCC(N)=O)NC1=O` strictly below 100?
f

Hello, is cell viability of the following compound strictly smaller than 100? `CC(C)(C)Cn1c(N)nc2ccc(-c3[nH]c(C(C)(C)C)nc3-c3ccc(F)cc3)nc21.CS(=O)(=O)O.CS(=O)(=O)O`
t

Regarding O=CC(O)C(O)C(O)CO (stereo unspecified) , kindly confirm whether its cell viability is beneath 100.
f

----------
System: HCI03 (cells of an ER-positive luminal breast cancer xenograft)
experiment-summary: cell viability (% of vehicle); higher = less cytotoxic
assay-context: 10 µM; 72 h
measured-parameter: cell viability
Response field accepts a number only; no unit should be typed.

compound: COc1cc(Cc2cnc(N)nc2N)cc(OC)c1OC [Trimethoprim]
value-reported: 144
//
compound: CN1CCN(C2=c3ccccc3=Nc3ccc(Cl)cc3N2)CC1 [Clozapine]
value-reported: 130
//
compound: O=N[O-].[Na+] [Sodium Nitrite]
value-reported: 95.5
//
compound: CC(CCC(=O)O)C1CCC2C3C(O)CC4CC(O)CCC4(C)C3CCC12C (stereo not drawn) [Ursodiol]
value-reported: 150
//
compound: CC(C)(C)c1nc(-c2cccc(NS(=O)(=O)c3c(F)cccc3F)c2F)c(-c2ccnc(N)n2)s1
value-reported: 125
//
compound: CC12CCC(O)CC1=CCC1C2CCC2(C)C(c3cccnc3)=CCC12 (stereo not drawn) [Abiraterone]
value-reported: 168
//
compound: Cc1cccc(Nc2ccccc2C(=O)O)c1C [Mefenamic Acid]
value-reported: 102
//
compound: Cl.O=C(Nc1ccccc1)OCC(CN1CCCCC1)OC(=O)Nc1ccccc1 (stereo not drawn) [Diperodon HCl]
value-reported: 124
//
compound: CCN1CCCC1CNC(=O)c1cc(S(=O)(=O)CC)c(N)cc1OC (stereo not drawn) [Amisulpride]
value-reported: 126
//
compound: O=C1OC(C(O)CO)C(O)=C1O (stereo not drawn) [Vitamin C]
value-reported: 111

I have this compound here, CC(C)NCC(O)c1ccc(NS(C)(=O)=O)cc1.Cl (stereo not drawn) [Sotalol] , and I need its recorded cell viability.
116

Sample CN(C)CCc1c[nH]c2ccc(CC3COC(=O)N3)cc12 (stereo not drawn) [Zolmitriptan] — what was its cell viability?
134

Could you share which cell viability value was measured for CCCCCCNC(=O)n1cc(F)c(=O)[nH]c1=O [Carmofur] ?
103

----------
Listing of recorded cell viability by entry.
Test system: WHIM30 (cells of a triple-negative basal-like breast cancer xenograft);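 further: cells dissociated from PDX tumors propagated in female NSG mouse mammary fat pads, vehicle control 0.1% DMSO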
experiment-summary: cell viability (% of vehicle); higher = less cytotoxic
assay-context: 1 µM; 72 h
Output: the number by itself.

compound: CO[C@@]12[C@H](COC(N)=O)C3=C(C(=O)C(C)=C(N)C3=O)N1C[C@@H]1N[C@@H]12
subject-of-test: WHIM30
cell viability: 66.9
--
compound: CN1CCCC1CCOC(C)(c1ccccc1)c1ccc(Cl)cc1.O=C(O)C=CC(=O)O (stereo not drawn) [Clemastine Fumarate]
subject-of-test: WHIM30
cell viability: 78.8
--
compound: CC1(C)CCC(c2ccc(Cl)cc2)=C(CN2CCN(c3ccc(C(=O)NS(=O)(=O)c4ccc(NC(CCN5CCOCC5)CSc5ccccc5)c(S(=O)(=O)C(F)(F)F)c4)cc3)CC2)C1 (stereo not drawn)
subject-of-test: WHIM30
cell viability: 62.2
--
compound: C#Cc1cccc(Nc2ncnc3cc(OCCOC)c(OCCOC)cc23)c1
subject-of-test: WHIM30
cell viability: 65
--
compound: Cc1c(Cl)cccc1Nc1ccccc1C(=O)O
subject-of-test: WHIM30
cell viability: 92.6

Give the measured cell viability of `O=C(C=Cn1cnc(-c2cc(C(F)(F)F)cc(C(F)(F)F)c2)n1)NNc1cnccn1` .
41.8

Suppose we examine the compound `Cc1ccc(NC(=O)c2ccc(CN3CCN(C)CC3)cc2)cc1Nc1nc(-c2cccnc2)cs1` ; what cell viability value has been reported?
84.6

What value of measured cell viability is listed for Clc1ccc(C(Cn2ccnc2)OCc2ccsc2Cl)c(Cl)c1 (stereo not drawn) ?
90.1

----------
Tested on: HCI11 (cells of an ER-positive luminal breast cancer xenograft)
experiment-summary: cell viability (% of vehicle); higher = less cytotoxic
assay-context: 10 µM; 72 h
# if measured cell viability < 90: Y  # else: N

Examples with answers:
compound: Nc1ccn(C2CCC(CO)O2)c(=O)n1 (centres undefined)
assigned-label: N
--
compound: COc1cnc(NS(=O)(=O)c2ccc(N)cc2)nc1
assigned-label: Y
--
compound: COC(=O)C(Cc1ccccc1)NC(=O)C(N)CC(=O)O (centres undefined)
assigned-label: N
--
compound: COc1ccc(-c2nc3ccc(C4=NNC(=O)CC4C)cc3[nH]2)cc1 (centres undefined)
assigned-label: N
--
compound: CC(=O)[N-]S(=O)(=O)c1ccc(N)cc1.[Na+] [Sulfacetamide Sodium]
assigned-label: N
--
compound: CCOc1cc(C(CS(C)(=O)=O)N2C(=O)c3cccc(NC(C)=O)c3C2=O)ccc1OC (centres undefined)
assigned-label: N
--
compound: Cc1c(-c2cnccn2)ssc1=S
assigned-label: Y
--
compound: COc1cc2c(cc1O)CCC1C2CCC2(C)C(O)CCC12 (centres undefined)
assigned-label: N

Strictly below 90: is that where cell viability of `COc1ccc(C(=O)c2ccccc2)c(O)c1` sits?
N

hey, is cell viability for NCC(O)c1ccc(O)c(O)c1.O.O=C(O)C(O)C(O)C(=O)O (centres undefined) [Noradrenaline bitartrate monohydrate] lower than 90 or not?
N

Is 90 strictly greater than the compound's reported cell viability? compound: `CCCS(=O)(=O)Nc1ccc(F)c(C(=O)c2c[nH]c3ncc(-c4ccc(Cl)cc4)cc23)c1F`
N

Given CC1C(NC(=O)C(=NOC(C)(C)C(=O)O)c2csc(N)n2)C(=O)N1S(=O)(=O)O (centres undefined) , is recorded cell viability strictly lower than 90?
N

Is it true that cell viability reported for `CC[C@@H]1/C=C(\C)C[C@H](C)C[C@H](OC)[C@H]2O[C@@](O)(C(=O)C(=O)N3CCCC[C@H]3C(=O)O[C@H](/C(C)=C/[C@@H]3CC[C@H](Cl)[C@H](OC)C3)[C@H](C)[C@@H](O)CC1=O)[C@H](C)C[C@@H]2OC` is less than 90?
Y

Lab note: cell viability threshold 90. Does this compound come in strictly under it? O=C(c1ccc(F)c(F)c1Nc1ccc(I)cc1F)N1CC(O)(C2CCCCN2)C1 (centres undefined)
Y

Just wondering, is cell viability of CC1c2cccc(O)c2C(O)=C2C(=O)C3(O)C(O)=C(C(N)=O)C(=O)C(N(C)C)C3C(O)C21.Cl (centres undefined) [Doxycycline hyclate] below 90?
N

Input C[N+](C)(C)CCOC(=O)CCC(=O)OCC[N+](C)(C)C.O.O.[Cl-].[Cl-] [Succinylcholine Chloride Dihydrate] ; condition: cell viability strictly below 90. Does it hold?
N
